subject-of-test: human CD123 (IL3RA) on cells (human) (UniProt P26951)
Sequence (P26951 19-378): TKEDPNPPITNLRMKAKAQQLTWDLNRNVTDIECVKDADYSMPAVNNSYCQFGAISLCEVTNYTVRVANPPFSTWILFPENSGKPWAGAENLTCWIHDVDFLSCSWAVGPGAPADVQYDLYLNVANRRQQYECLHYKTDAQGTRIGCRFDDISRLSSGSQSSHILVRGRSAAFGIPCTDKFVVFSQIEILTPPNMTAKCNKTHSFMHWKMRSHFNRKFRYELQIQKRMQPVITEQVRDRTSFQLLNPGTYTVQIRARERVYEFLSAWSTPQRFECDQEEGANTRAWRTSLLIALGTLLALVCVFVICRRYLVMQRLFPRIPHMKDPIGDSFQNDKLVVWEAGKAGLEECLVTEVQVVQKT
assay-comment: cell-based or functional assay
We label by threshold. Values of EC50 [ng/ml] geomean, cytotoxic assay on THP-1 strictly beneath 100 ng/mL are 1. Values of 100 ng/mL and up are 0.

{"binder": "CODV-Fab BFX-6B10-E4 × CD3 (bispecific antibody, part only; not given: CD3 arm, linkers, constant domains, part only) light, part: NIVMTQSPKSMSISVGDRVTMNCKASQTVGNNIAWYQQKPGLSPQLLIDYASNRYTGVPNRFTGGGYGTDFILTINSVQAEDAAFYYCQRMYNSPTFGGGTKLELK heavy, part: EVQLVESGGGLVQPGRSLKLSCAASGFTFSHYNMAWVRQAPKKGLEWVATITYDDHSTYYRDSVKGRFTISRDTAKSTLYLQMDSLRSEDTATYYCARLVNYAFAYWGQGTLVTVSS", "group-label": 1}
{"binder": "CODV-Fab BFX-3E3-D3 × CD3 (bispecific antibody, part only; not given: CD3 arm, linkers, constant domains, part only) light, part: QFVLTQPNSVSTNLGSTVKLSCKRNTGNIGSNYVNWYQQHEGRSPTTMIYRDDKRPDGVPDRFSGSIDRSSNSALLTINNVQTEDEADYFCQSYSSGINIIFGGGTKLTVL heavy, part: QVQLQESGPGLVQPSQTLSLTCTVSGFSLTTYDVHWVRQPPGKGLEWMGRIQNGGITDYNSALKSRLIISRDTSKSQVFLKMNSVQTEDTAMYFCAKTGSYFYAFDHWGQGTLVTVSS", "group-label": 1}
{"binder": "CODV-Fab BFX-3B10-E6 × CD3 (bispecific antibody, part only; not given: CD3 arm, linkers, constant domains, part only) light, part: DVLMTQTPVSLPVSLGGQVSISCRSSQSLVHSDGDTYLHWYLQKPGQSPQLLIYRVSNRFSGVPDRFSGSGSGTDFTLKISRVEPEDLGLYYCLQTTHFPPWTFGGGTKLEMK heavy, part: QVQLQQSGPELRRPGSSVRLSCKASGYRIKDFLIHWIKNRPEHGLEWIGWIDPEDGETKYAQKFQTKATLTADTSSNTAYMQLSSLTSEDTATYFCARWGDVYYGLMRGHVMDAWGQGTSVTVSS", "group-label": 0}
{"binder": "CODV-Fab BFX-9F6-G3 × CD3 (bispecific antibody, part only; not given: anti-CD3 arm, linkers, constant domains, V domains shown, not shown: another chain or arm of the molecule; a dimerising Fc or GST; small tags and cut ends) VL: DIQMTQSPASLSASLGETVTIECRPSEDIHSNVAWYQQKPGNSPQLLIYDASNLADGVPSRFSGSGSGTQYSLKINSLQSEDVASYFCHQYNIYPYTFGSGTKLELK VH: QVQLQESGPTLVKPGDSVKMSCKASGYTFTDYIIHWVKQSHGKSLEWIGYINPYSDGTNYNEKFKSKATLTVDKSTSTAYMEFSRLTSEDSAIYFCALNYGSYYAMDAWGQGTSVTVSS", "group-label": 1}
{"binder": "CODV-Fab BFX-9B8-G6 × CD3 (bispecific antibody, part only; not given: anti-CD3 arm, linkers, constant domains, V domains shown, not shown: another chain or arm of the molecule; a dimerising Fc or GST; small tags and cut ends) VL: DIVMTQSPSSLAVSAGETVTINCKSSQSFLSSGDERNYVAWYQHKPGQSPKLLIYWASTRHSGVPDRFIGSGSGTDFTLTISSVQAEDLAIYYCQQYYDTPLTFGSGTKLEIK VH: EVKLQESGPSLVQSSQTLSLTCTVSGFSLTSYHIHWVRQPPGKGLEWMGVMWSDGDTSYSSALKSRLSISRDTSQSQVFLKMNSLQTEDTATYYCARGDYSSYIYLWFAYWGQGTLVTVSS", "group-label": 0}
{"binder": "CODV-Fab BFX-2B8-F3 × CD3 (bispecific antibody, part only; not given: CD3 arm, linkers, constant domains, part only) light, part: EIVLTQSPTSMTASPGEQVTITCRASSSINYMHWYQQKPGASPRPWIYETSKLASGVPDRFSGSASGTSYSLTINNMEAEDAATYYCQQWNYPSWTFGGGTKLELK heavy, part: EVQLVESGGGLVQPGRSLKLSCAASGFTFSDYNMAWVRQAPKKGLEWVATILYDGGRTYYRGSVKGRFTISRDNAKSTLYLRMDSLRSEDTATYYCATHSRGTDYFDYWGQGVMVTVSS", "group-label": 0}
{"binder": "CODV-Fab BFX-9D7-C8 × CD3 (bispecific antibody, part only; not given: anti-CD3 arm, linkers, constant domains, V domains shown, not shown: another chain or arm of the molecule; a dimerising Fc or GST; small tags and cut ends) VL: DIVMTQSPSSLAVSEGETVTINCKSSQSFLSSGDGKNYVAWYQYKPGQSPKLLIYWASTRQSGVPDRFIGSGSGTDFTLTISTVQAEDLAIYYCQQYYDTPLTFGSGTKLEIK VH: EVKLQESGPSLVQSSQTLSLTCTVSGFSLTSYHIHWVRQTPGKGLEWMGVMWSDGDTSYNSALKSRLSISRDTSQSQVFLKMNSLQTEDTATYYCARGYYSSYLYLWFAYWGQGTLVTVSS", "group-label": 1}

The reported numbers originate from patent US20210292423A1.
